Cited source: the supplement of paper PMC11451515

Each record here notes measured cell viability.
Test system: SEM cells
Experiment: cell viability relative to DMSO control; higher = less cytotoxic
Settings: RPMI 5 mM glucose + 10% FBS; 48 h; 46.1 µM
Measurement Type: cell viability (%)

{"Compound": "CCCCc1ccc2[nH]c(NC(=O)OC)nc2c1", "Measurement Type": "cell viability", "Value Unit": "%", "Recorded Number": 10.8}
{"Compound": "CC(C)c1onc(-c2c(Cl)cccc2Cl)c1COc1ccc(/C=C/c2cccc(C(=O)O)c2)c(Cl)c1", "Measurement Type": "cell viability", "Value Unit": "%", "Recorded Number": 85.7}
{"Compound": "c1cc(-c2cnn3cc(-c4ccc(OCCN5CCCCC5)cc4)cnc23)ccn1", "Measurement Type": "cell viability", "Value Unit": "%", "Recorded Number": 23.3}
{"Compound": "CC/C=C\\C[C@H]1C(=O)CC[C@@H]1CC(=O)OC", "Measurement Type": "cell viability", "Value Unit": "%", "Recorded Number": 88.9}
{"Compound": "Nc1ccc(C(=O)c2cc3c(ccc4ccccc43)[nH]2)cc1", "Measurement Type": "cell viability", "Value Unit": "%", "Recorded Number": 8.45}
{"Compound": "CNc1nc(-c2ccc3c(N)n[nH]c3c2)cc(N2C[C@@H](C(=O)NC3CCCCC3)CC[C@H]2C)n1", "Measurement Type": "cell viability", "Value Unit": "%", "Recorded Number": 2.66}
{"Compound": "CCC(CCCC)COC(=O)C(\\C#N)=C(\\c1ccccc1)c2ccccc2 (configuration not stated)", "Measurement Type": "cell viability", "Value Unit": "%", "Recorded Number": 88.9}
{"Compound": "CC(=O)SC[C@@H](C)C(=O)N1CCC[C@H]1C(=O)N[C@@H](Cc1ccccc1)C(=O)O", "Measurement Type": "cell viability", "Value Unit": "%", "Recorded Number": 72.6}
{"Compound": "Nc1nc(F)nc2c1ncn2[C@@H]1O[C@H](COP(=O)(O)O)[C@@H](O)[C@@H]1O", "Measurement Type": "cell viability", "Value Unit": "%", "Recorded Number": 11.1}
{"Compound": "CC[C@H]1OC(=O)[C@H](C)[C@@H](O[C@H]2C[C@@](C)(OC)[C@@H](O)[C@H](C)O2)[C@H](C)[C@@H](O[C@@H]2O[C@H](C)C[C@H](N(C)C)[C@H]2O)[C@](C)(OC)C[C@@H](C)C(=O)[C@H](C)[C@@H](O)[C@]1(C)O", "Measurement Type": "cell viability", "Value Unit": "%", "Recorded Number": 84.7}
{"Compound": "CO[C@H]1/C=C/O[C@@]2(C)Oc3c(C)c(O)c4c(c3C2=O)C2=NC3(CCN(CC(C)C)CC3)NC2=C(NC(=O)/C(C)=C/C=C/[C@H](C)[C@H](O)[C@@H](C)[C@@H](O)[C@@H](C)[C@H](OC(C)=O)[C@@H]1C)C4=O", "Measurement Type": "cell viability", "Value Unit": "%", "Recorded Number": 113}
{"Compound": "Cc1cc(Nc2ncc3c(n2)N(C)C(=O)N(c2cc(NC(=O)c4cccc(C(F)(F)F)c4)ccc2C)C3)n(C)n1", "Measurement Type": "cell viability", "Value Unit": "%", "Recorded Number": 3.3}

---

Each record here notes measured cell viability.
Tested on: P12-Ichikawa
Test: cell viability relative to DMSO control; higher = less cytotoxic
Settings: RPMI 5 mM glucose + 10% dialyzed FBS; 48 h; 0.0632 µM
Measurement Type: cell viability (%)

{"Smiles Structure": "O=C(O)c1ccc(O)c2ncc(N3CCOCC3)cc12", "Measurement Type": "cell viability", "Recorded Number": 98}
{"Smiles Structure": "CNc1nc(-c2ccc3c(N)n[nH]c3c2)cc(N2C[C@@H](C(=O)NC3CCCCC3)CC[C@H]2C)n1", "Measurement Type": "cell viability", "Recorded Number": 88.4}
{"Smiles Structure": "Cc1ccc2nc(NCCN)c3ncc(C)n3c2c1", "Measurement Type": "cell viability", "Recorded Number": 104}
{"Smiles Structure": "CC1(C)CC\\C2=C(/O1)C3=C(C=CC=C3)C(=O)C2=O", "Measurement Type": "cell viability", "Recorded Number": 108}
{"Smiles Structure": "CC(=O)SC[C@@H](C)C(=O)N1CCC[C@H]1C(=O)N[C@@H](Cc1ccccc1)C(=O)O", "Measurement Type": "cell viability", "Recorded Number": 99.7}
{"Smiles Structure": "CCN(CC)CCNC(=O)c1c(C)[nH]c(/C=C2\\C(=O)Nc3ccc(F)cc32)c1C", "Measurement Type": "cell viability", "Recorded Number": 113}

---

Test system: SEM cells
Test: cell viability relative to DMSO control; higher = less cytotoxic
Conditions: RPMI 5 mM glucose + 10% dialyzed FBS; 48 h; 0.569 µM
Measurement Type: cell viability

{"Compound": "Nc1ccc(C(=O)Nc2cccc(-c3nc(N4CCOCC4)c4oc5ncccc5c4n3)c2)cn1", "Measurement Type": "cell viability", "Result": "104%"}
{"Compound": "Cc1ccc([C@@H]2O[C@H](CO)[C@@H](O)[C@H](O)[C@H]2O)cc1Cc1ccc(-c2ccc(F)cc2)s1", "Measurement Type": "cell viability", "Result": "109%"}
{"Compound": "CCOC(=O)N1CCN(/[N+]([O-])=N/Oc2cc(O/N=[N+](\\[O-])N3CCN(C(=O)OCC)CC3)c([N+](=O)[O-])cc2[N+](=O)[O-])CC1", "Measurement Type": "cell viability", "Result": "134%"}
{"Compound": "C[C@]12CC[C@H]3[C@@H](CC(=C)\\C4=C\\C(=O)\\C=C/[C@]34C)[C@@H]1CCC2=O", "Measurement Type": "cell viability", "Result": "115%"}
{"Compound": "Cc1c(CN2CCN([S+](C)(=O)[O-])CC2)sc2c(N3CCOCC3)nc(-c3cnc(N)nc3)nc12", "Measurement Type": "cell viability", "Result": "98.8%"}
{"Compound": "CC(C)c1onc(-c2c(Cl)cccc2Cl)c1COc1ccc(/C=C/c2cccc(C(=O)O)c2)c(Cl)c1", "Measurement Type": "cell viability", "Result": "118%"}
{"Compound": "Cc1ccc2nc(NCCN)c3ncc(C)n3c2c1", "Measurement Type": "cell viability", "Result": "111%"}
{"Compound": "CC1(C)SCCN([S+](=O)([O-])c2ccc(OCC#CCO)cc2)[C@H]1C(=O)NO", "Measurement Type": "cell viability", "Result": "107%"}
{"Compound": "C[C@@H]1CC[C@@]2(CC[C@]3(C)\\C(=C/C[C@@H]4[C@@]5(C)CC[C@H](O)C(C)(C)[C@@H]5CC[C@@]34C)[C@@H]2[C@H]1C)C(O)=O", "Measurement Type": "cell viability", "Result": "118%"}
{"Compound": "CC1(C)CC\\C2=C(/O1)C3=C(C=CC=C3)C(=O)C2=O", "Measurement Type": "cell viability", "Result": "100%"}
{"Compound": "CC(C)(N)c1ccc(-c2nc3ccccc3nc2-c2ccccc2)cc1", "Measurement Type": "cell viability", "Result": "6.06%"}
{"Compound": "Cc1c(N)nc([C@H](CC(N)=O)NC[C@@H](N)C(N)=O)nc1C(=O)N[C@H](C(=O)N[C@@H](C)[C@H](O)[C@@H](C)C(=O)N[C@@H](C(=O)NCCc1nc(-c2nc(C(=O)NCCC[S+](C)C)cs2)cs1)[C@@H](C)O)C(O[C@H]1O[C@H](CO)[C@H](O)[C@@H](O)[C@H]1O[C@H]1O[C@H](CO)[C@@H](O)[C@H](OC(N)=O)[C@@H]1O)c1c[nH]cn1 (stereo partly specified)", "Measurement Type": "cell viability", "Result": "91.5%"}
{"Compound": "C[C@]12CCC3c4ccc(O)cc4CCC3C1CCC2=O (stereo partly specified)", "Measurement Type": "cell viability", "Result": "80.7%"}
{"Compound": "C[C@]1(O)CC(C1)C2=NC(=C3[N]2C=CN=C3N)C4=CC5=C(C=C4)C=CC(=N5)C6=CC=CC=C6 (stereo unspecified)", "Measurement Type": "cell viability", "Result": "72.5%"}
{"Compound": "CCCCCNC(=N)N/N=C/c1c[nH]c2ccc(OC)cc12", "Measurement Type": "cell viability", "Result": "130%"}
{"Compound": "Clc2cccc(Cl)c2\\N=C1/NCCN1", "Measurement Type": "cell viability", "Result": "127%"}

---

Tested on: P12-Ichikawa
Assay: cell viability relative to DMSO control; higher = less cytotoxic
Conditions: RPMI 5 mM glucose + 10% dialyzed FBS; 48 h; 15.4 µM

{"Compound": "CCCCc1ccc2[nH]c(NC(=O)OC)nc2c1", "Test Target": "P12-Ichikawa", "cell viability": "29.3%"}
{"Compound": "O=C1NC(=O)/C(=C/c2ccc3nccnc3c2)S1", "Test Target": "P12-Ichikawa", "cell viability": "104%"}
{"Compound": "CN1C(=O)/C(=C(NC2=CC=C(I)C=C2F)\\C3=C1\\N=C/N(C[C@@H](O)CO)C3=O)F", "Test Target": "P12-Ichikawa", "cell viability": "65.2%"}
{"Compound": "CCCN[C@H]1CCc2nc(N)sc2C1", "Test Target": "P12-Ichikawa", "cell viability": "96.9%"}
{"Compound": "Cc1c(N)nc([C@H](CC(N)=O)NC[C@@H](N)C(N)=O)nc1C(=O)N[C@H](C(=O)N[C@@H](C)[C@H](O)[C@@H](C)C(=O)N[C@@H](C(=O)NCCc1nc(-c2nc(C(=O)NCCC[S+](C)C)cs2)cs1)[C@@H](C)O)C(O[C@H]1O[C@H](CO)[C@H](O)[C@@H](O)[C@H]1O[C@H]1O[C@H](CO)[C@@H](O)[C@H](OC(N)=O)[C@@H]1O)c1c[nH]cn1 (stereo partly drawn)", "Test Target": "P12-Ichikawa", "cell viability": "37.2%"}
{"Compound": "CNC(=O)c1ccc2c(c1)NC(=O)/C2=C(\\Nc1cccc(CN(C)C)c1)c1ccccc1", "Test Target": "P12-Ichikawa", "cell viability": "81.8%"}
{"Compound": "CN(C)c1nc(Cc2ccc(NC(=O)c3ccc(C(F)(F)F)cc3)cc2)nc(N(C)C)c1CC(=O)O", "Test Target": "P12-Ichikawa", "cell viability": "93.8%"}
{"Compound": "CN1CCc2c(c3ccccc3n2Cc2ccc(C(=O)NO)cc2)C1", "Test Target": "P12-Ichikawa", "cell viability": "63.3%"}
{"Compound": "CC(=O)OC[C@@H]1O[C@H]([C@H](OC(C)=O)[C@@H]1OC(C)=O)N2\\C=C/C(=O)NC2=O", "Test Target": "P12-Ichikawa", "cell viability": "104%"}
{"Compound": "COC1=CC=C(C=C1)/C2=C(O)/C(=O)C3=C(O)C=C(O)C(=C3O2)CC=C(C)C", "Test Target": "P12-Ichikawa", "cell viability": "95.8%"}
{"Compound": "OC[C@H]1O[C@H](C[C@@H]1O)N2/C=C(C(=O)NC2=O)/C(F)(F)F", "Test Target": "P12-Ichikawa", "cell viability": "16.8%"}
{"Compound": "CC/C=C\\C[C@H]1C(=O)CC[C@@H]1CC(=O)OC", "Test Target": "P12-Ichikawa", "cell viability": "116%"}
{"Compound": "O=C(O)CCCCCC(=O)NN=C1CCCC1", "Test Target": "P12-Ichikawa", "cell viability": "104%"}
{"Compound": "Oc1ccc(OCc2ccccc2)cc1", "Test Target": "P12-Ichikawa", "cell viability": "52.4%"}
{"Compound": "OC(=O)\\C1=C\\N(C2CC2)C3=CC(=C(F)C=C3C1=O)N4CCNCC4", "Test Target": "P12-Ichikawa", "cell viability": "90.5%"}
{"Compound": "CCn1nnc2c(N3CCOCC3)nc(-c3ccc(NC(=O)Nc4ccc(C(=O)N5CCN(C)CC5)cc4)cc3)nc21", "Test Target": "P12-Ichikawa", "cell viability": "54.4%"}
{"Compound": "CO[C@@H](C(=O)N1Cc2[nH]nc(NC(=O)c3ccc(N4CCN(C)CC4)cc3)c2C1)c1ccccc1", "Test Target": "P12-Ichikawa", "cell viability": "42.8%"}
{"Compound": "NCCCC(N)(C(=O)O)C(F)F (stereo not drawn)", "Test Target": "P12-Ichikawa", "cell viability": "105%"}
